Data credit: patent US20090326008A1

Consider the following compounds and their measured IL-8 relative mRNA expression level, Mean readings.
# Tested on: IL-8
# protocol_notes: Relative IL-8 mRNA expression in IL-1β-stimulated MKN-45 cells (real-time PCR)
# Assay type: cell-based, human
# recorded_conditions: IL-1β-stimulated DMSO-treated cells = 100%, ACTB reference
The response must be a number in % with no trailing unit.

Q: Read the entry COc1ccc(CC2SC(=O)NC2=O)c2c1N(CC(=O)Nc1ccc(C(F)(F)F)cc1)C(=O)CC2 (stereo not shown) and write its reported IL-8 relative mRNA expression level, Mean.
Ans: 41.8

Q: Provide IL-8 relative mRNA expression level, Mean value for the following compound: COc1ccc(CC2SC(=O)NC2=O)c2c1N(Cc1ccc(OCc3ccccc3)cc1)C(=O)CC2 (stereo not shown)
Ans: 44.8

Q: Specify reported IL-8 relative mRNA expression level, Mean for the compound shown: COc1ccc(OC(=O)Nc2ccc(CN3C(=O)CCc4c(CC5SC(=O)NC5=O)ccc(OC)c43)cc2)cc1 (stereo not shown)
Ans: 25.9

Q: Read off the recorded IL-8 relative mRNA expression level, Mean for O=C1NC(=O)C(Cc2cccc3c2CCC(=O)N3c2ccccc2)S1 (stereo not shown)
Ans: 52.0

---

# System: IL-8
# protocol_notes: Relative IL-8 mRNA expression in IL-1β-stimulated MKN-45 cells (real-time PCR)
# Format: cell-based, human
# recorded_conditions: IL-1β-stimulated DMSO-treated cells = 100%, ACTB reference
observation_type: IL-8 relative mRNA expression level, Mean

See these solved cases before continuing.
| molecule | tgt | meas_value |
| --- | --- | --- |
| COc1ccc(CC2SC(=O)NC2=O)c2c1N(CCCC(=O)Nc1ccccc1)C(=O)CC2 (stereo not shown) | IL-8 | 36.5% |
| O=C1NC(=S)SC1Cc1cccc2c1CCC(=O)N2Cc1ccc2ccccc2c1 (stereo not shown) | IL-8 | 50.1% |
| COc1ccc(CC2SC(=O)NC2=O)c2c1N(Cc1ccc(C#N)cc1)C(=O)CC2 (stereo not shown) | IL-8 | 45.4% |

Now consider a different molecule.
Q: Dear colleague, please send me the reported IL-8 relative mRNA expression level, Mean for COc1ccc(CC2SC(=O)NC2=O)c2c1N(Cc1ccc(NC(=O)C3CCCCC3)cc1)C(=O)CC2 (stereo not shown) when you can.
Ans: 50.0%

---

# Test system: IL-8
# protocol_notes: Relative IL-8 mRNA expression in IL-1β-stimulated MKN-45 cells (real-time PCR)
# Format: cell-based, human
# recorded_conditions: IL-1β-stimulated DMSO-treated cells = 100%, ACTB reference
Catalogue of compounds with associated IL-8 relative mRNA expression level, Mean
Field format: number, assumed %, no unit text.

// solved cases for IL-8 relative mRNA expression level, Mean follow
| compound | tgt | unit_tag | meas_value |
| --- | --- | --- | --- |
| Cc1ccc(CN2C(=O)CCc3c(CC4SC(=S)NC4=O)cccc32)cc1 (stereo not shown) | IL-8 | % | 45.6 |
| CCCCCOC(=O)Nc1ccc(CN2C(=O)CCc3c(CC4SC(=O)NC4=O)ccc(OC)c32)cc1 (stereo not shown) | IL-8 | % | 33.8 |
| CC(C)(C)OC(=O)N1CCC(CCN2C(=O)CCc3c(CC4SC(=O)NC4=O)cccc32)CC1 (stereo not shown) | IL-8 | % | 34.0 |

Moving on to the next compound.
Q: Provide IL-8 relative mRNA expression level, Mean value for the following compound: COc1ccc(CC2SC(=O)NC2=O)c2c1N(Cc1ccc(NC(=O)Oc3ccc(C)cc3)cc1)C(=O)CC2 (stereo not shown)
Ans: 30.4

---

# Tested on: IL-8
# protocol_notes: Relative IL-8 mRNA expression in IL-1β-stimulated MKN-45 cells (real-time PCR)
# Type: cell-based, human
# recorded_conditions: IL-1β-stimulated DMSO-treated cells = 100%, ACTB reference
observation_type: IL-8 relative mRNA expression level, Mean (%)
Use % as the unit, but write only the number.

// known answers, use as guide
| molecule | meas_value |
| --- | --- |
| COc1ccc(CC2SC(=S)NC2=O)c2c1N(CCC(C)C)C(=O)CC2 (centres unmarked) | 61.2 |
| O=C1NC(=O)C(Cc2ccc3c(c2)CCC(=O)N3Cc2ccc(-c3ccccc3)cc2)S1 (centres unmarked) | 67.7 |
| COc1ccc(CC2SC(=O)NC2=O)c2c1N(Cc1ccc(Br)cc1)C(=O)CC2 (centres unmarked) | 48.3 |
| COc1ccc(CC2SC(=S)NC2=O)c2c1N(CCOc1ccccc1)C(=O)CC2 (centres unmarked) | 70.4 |
| O=C1NC(=S)SC1Cc1ccc2c(c1)CCC(=O)N2Cc1ccc(-c2ccccc2)cc1 (centres unmarked) | 38.3 |
| COc1ccc(CC2SC(=S)NC2=O)c2c1N(Cc1ccc(C(C)(C)C)cc1)C(=O)CC2 (centres unmarked) | 61.9 |

Q: State its IL-8 relative mRNA expression level, Mean: COC(=O)c1ccc(CN2C(=O)CCc3c(CC4SC(=O)NC4=O)ccc(OC)c32)cc1 (centres unmarked)
Ans: 59.9

Q: Report measured IL-8 relative mRNA expression level, Mean; entry is COc1ccc(CC2SC(=S)NC2=O)c2c1N(CC1CC1)C(=O)CC2 (centres unmarked)
Ans: 79.4
